Test system: HEK-Blue TGFβ cell
Assay: HEK-Blue TGFβ cellular reporter gene assay (SEAP readout)
Assay type: cell-based
Settings: HEK-Blue TGFβ cells stimulated with TGF-β, 22-23 h incubation, SEAP read at 630 nm
pIC50: −log10 of the molar value.
metric: pIC50

>  <smilesString>
Cc1cc(Oc2ccnc(Nc3cncc(CCc4nnn[nH]4)c3)c2)c(-c2ccccn2)nc1C

>  <testedSystem>
HEK-Blue TGFβ cell

>  <valueObserved>
< 5.00

$$$$
>  <smilesString>
c1cc(Cc2nn[nH]n2)cc(Nc2cc(Oc3cn(C4CC4)nc3C3CCOCC3)ccn2)c1

>  <testedSystem>
HEK-Blue TGFβ cell

>  <valueObserved>
< 5.00

$$$$

Ask: Quick one: pIC50 for `Cc1cc(Oc2ccnc(Nc3cnn(CCc4nn[nH]n4)c3)c2)c(-c2ccccn2)nc1C` ?
Reply: < 5.00

---

Test system: HEK-Blue TGFβ cell
Experiment: HEK-Blue TGFβ cellular reporter gene assay (SEAP readout)
Type: cell-based
Conditions: HEK-Blue TGFβ cells stimulated with TGF-β, 22-23 h incubation, SEAP read at 630 nm
metric: IC50 (nM)
Dear colleague, please return just the value in nM, with no unit written.

>  <smilesString>
Cc1cc(Oc2ccnc(Nc3cc(CCc4nnn[nH]4)ccc3F)c2)c(-c2ccccn2)nc1C

>  <IC50 [nM]>
160

$$$$

Ask: Quick one: IC50 for `Cc1ccc(Nc2cc(Oc3cc(C)c(C)nc3-c3ccccn3)ccn2)cc1C(C)(C)C(=O)O` ?
Reply: 100

Ask: Quick one: IC50 for `CCCc1ccc(Oc2ccnc(Nc3cccc(C(C)(C)C(=O)O)c3)c2)c(-c2ccccc2)n1` ?
Reply: 120

Ask: Quick one: IC50 for `Cc1ccc(Oc2ccnc(Nc3ccc(Cl)c(CCC(=O)O)c3)c2)c(C)n1` ?
Reply: 100

---

Tested on: HEK-Blue TGFβ cell
Test: HEK-Blue TGFβ cellular reporter gene assay (SEAP readout)
Assay type: cell-based
Details: HEK-Blue TGFβ cells stimulated with TGF-β, 22-23 h incubation, SEAP read at 630 nm
Entries and their measured IC50 follow.
Dear colleague, please return just the value in µM, with no unit written.

Answered cases to consult:
>  <smilesString>
O=C(O)c1cccc(Nc2cc(Oc3cn(C4CC4)nc3C3CCOCC3)ccn2)c1

>  <unitAnnotation>
µM

>  <IC50>
6.2

$$$$
>  <smilesString>
COc1ccc(-c2nc(C)ccc2Oc2ccnc(Nc3cccc(C(C)(C)C(=O)O)c3)c2)cc1

>  <unitAnnotation>
µM

>  <IC50>
0.039

$$$$
>  <smilesString>
c1ccc(-c2nn(C3CCC3)cc2Oc2ccnc(Nc3cccc(CCc4nn[nH]n4)c3)c2)cc1

>  <unitAnnotation>
µM

>  <IC50>
0.086

$$$$
>  <smilesString>
Cc1ccc(Nc2cc(Oc3cc(C)c(C)nc3-c3ccccn3)ccn2)cc1CCc1nnn[nH]1

>  <unitAnnotation>
µM

>  <IC50>
0.05

$$$$
>  <smilesString>
Cc1nc(-c2ccccc2)ccc1Oc1ccnc(Nc2cccc(C(C)(C)C(=O)O)c2)c1

>  <unitAnnotation>
µM

>  <IC50>
8.12

$$$$

Ask: Quick one: IC50 for `Cc1nc(-c2ccccc2)c(Oc2ccnc(Nc3cccc(C(C)(C)C(=O)O)c3)c2)cc1Cl` ?
Reply: 0.023

Ask: Quick one: IC50 for `CCc1nc(C)c(Oc2ccnc(Nc3cccc(CCC(=O)O)c3)c2)cc1Cl` ?
Reply: 0.016

Ask: Quick one: IC50 for `Cc1ccc(Oc2ccnc(Nc3cccc(C(C)(C)C(=O)O)c3)c2)c(-c2ccccc2F)n1` ?
Reply: 0.027

Ask: Quick one: IC50 for `Cc1cc(Oc2ccnc(Nc3cccc(CCC(=O)O)c3)c2)c(-c2ccccn2)nc1C` ?
Reply: 0.18

---

Tested on: HEK-Blue TGFβ cell
Test: HEK-Blue TGFβ cellular reporter gene assay (SEAP readout)
Type: cell-based
Conditions: HEK-Blue TGFβ cells stimulated with TGF-β, 22-23 h incubation, SEAP read at 630 nm
metric: IC50 (nM)
Dear colleague, please return just the value in nM, with no unit written.

Answered cases to consult:
>  <smilesString>
Cc1cc(Oc2ccnc(Nc3cc(Cl)cc(CCc4nn[nH]n4)c3)c2)c(-c2ccccn2)nc1C

>  <unitAnnotation>
nM

>  <valueObserved>
79

$$$$
>  <smilesString>
COc1cccc(-c2nc(C)ccc2Oc2ccnc(Nc3cccc(C(C)(C)C(=O)O)c3)c2)c1

>  <unitAnnotation>
nM

>  <valueObserved>
94

$$$$
>  <smilesString>
Cc1ccc(Oc2ccnc(Nc3cccc(C(C)(C)C(=O)O)c3)c2)c(-c2ccccc2C)n1

>  <unitAnnotation>
nM

>  <valueObserved>
80

$$$$
>  <smilesString>
Cc1ccc(Oc2ccnc(Nc3cccc(C4(C(=O)O)CC4)c3)c2)c(-c2ccccc2)n1

>  <unitAnnotation>
nM

>  <valueObserved>
80

$$$$
>  <smilesString>
CC(C)(C(=O)O)c1cccc(Nc2cc(Oc3cn(C4CCC4)nc3-c3ccccc3)ccn2)c1

>  <unitAnnotation>
nM

>  <valueObserved>
66

$$$$
>  <smilesString>
Cc1cc(Oc2ccnc(Nc3cc(CCC(=O)O)ccc3F)c2)c(-c2ccccn2)nc1C

>  <unitAnnotation>
nM

>  <valueObserved>
160

$$$$

Ask: Quick one: IC50 for `CCc1ccc(Oc2ccnc(Nc3cc(C)cc(C(C)(C)C(=O)O)c3)c2)c(C)n1` ?
Reply: 75

Ask: Quick one: IC50 for `Cc1cc(Cc2nn[nH]n2)cc(Nc2cc(Oc3cn(C4CCC4)nc3-c3ccccc3)ccn2)c1` ?
Reply: 120

Ask: Quick one: IC50 for `Cc1ccc(CCc2nnn[nH]2)cc1Nc1cc(Oc2cc(C)c(C)nc2-c2ccccn2)ccn1` ?
Reply: 110

The reported numbers originate from patent US20220054465A1.
